Molecular target: wild-type (AD3Δ) ScLDM6×His (Saccharomyces cerevisiae)
Construct: recombinant full-length C-terminal hexahistidine-tagged wild-type Saccharomyces cerevisiae LDM (ScLDM6×His); 6×His (hexahistidine) (C); made in house; host or cells: Saccharomyces cerevisiae strain AD3Δ ScErg11 (overexpression from the PDR5 locus, native ERG11 disrupted)
Experiment: Type II azole binding to affinity purified wild-type ScLDM6×His
Details: wild-type (AD3Δ) ScLDM6×His, 2 µM enzyme; (± SEM), μM; read-out: [Azole]0.5
readout.type: IC50 (µM)
The response must be a number in µM with no trailing unit.

C[C@@H](c1ncncc1F)[C@](O)(Cn1cncn1)c1ccc(F)cc1F [VCZ, voriconazole] :: 0.78

## Task Which IC50 reading was recorded for the molecule CCC(C)n1ncn(-c2ccc(N3CCN(c4ccc(OCC5COC(Cn6cncn6)(c6ccc(Cl)cc6Cl)O5)cc4)CC3)cc2)c1=O (centres unmarked) [ITC, itraconazole] ?
## Result 0.6

---

Target: wild-type (AD3Δ) ScLDM6×His (Saccharomyces cerevisiae, UniProt P10614)
Construct: recombinant full-length C-terminal hexahistidine-tagged wild-type Saccharomyces cerevisiae LDM (ScLDM6×His); 6×His (hexahistidine) (C); made in house; host or cells: Saccharomyces cerevisiae strain AD3Δ ScErg11 (overexpression from the PDR5 locus, native ERG11 disrupted)
Sequence (P10614 whole entry, stated change not applied): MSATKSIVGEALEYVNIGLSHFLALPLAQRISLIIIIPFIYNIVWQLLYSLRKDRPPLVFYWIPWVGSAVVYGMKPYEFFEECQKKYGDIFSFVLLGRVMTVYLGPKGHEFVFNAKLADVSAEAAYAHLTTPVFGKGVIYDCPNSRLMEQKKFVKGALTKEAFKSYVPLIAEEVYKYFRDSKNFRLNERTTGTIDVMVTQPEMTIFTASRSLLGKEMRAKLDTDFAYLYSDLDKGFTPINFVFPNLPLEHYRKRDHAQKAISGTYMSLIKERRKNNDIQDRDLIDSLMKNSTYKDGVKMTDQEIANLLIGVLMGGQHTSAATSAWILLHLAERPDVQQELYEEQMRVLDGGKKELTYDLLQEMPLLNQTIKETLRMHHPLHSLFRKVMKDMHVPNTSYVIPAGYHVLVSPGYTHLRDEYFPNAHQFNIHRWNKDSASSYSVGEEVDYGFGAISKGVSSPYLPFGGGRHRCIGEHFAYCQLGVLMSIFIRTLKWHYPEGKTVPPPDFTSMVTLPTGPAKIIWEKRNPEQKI
Assay: Type II azole binding to affinity purified wild-type ScLDM6×His
Conditions: wild-type enzyme, in the presence of 2 µM enzyme; read-out: IC50 from type II binding curves
pIC50: −log10 of the molar value.
readout.type: pIC50

CCC(C)n1ncn(-c2ccc(N3CCN(c4ccc(OCC5COC(Cn6cncn6)(c6ccc(Cl)cc6Cl)O5)cc4)CC3)cc2)c1=O (centres unmarked) :: 6.10 to 6.22

Please look at the following compound next.
## Task Field request: pIC50 | item: C[C@@H](c1ncncc1F)[C@](O)(Cn1cncn1)c1ccc(F)cc1F
## Result 6.10 to 6.22
